Hey, just so you know, these numbers are from the supplement of paper PMC11208160.

Assay: recombinant UMI read abundance after kanamycin selection (control-corrected) (log10(CPM+1)); higher = more efficient recombination; extreme values may be limits of the assay; sequences stand for … in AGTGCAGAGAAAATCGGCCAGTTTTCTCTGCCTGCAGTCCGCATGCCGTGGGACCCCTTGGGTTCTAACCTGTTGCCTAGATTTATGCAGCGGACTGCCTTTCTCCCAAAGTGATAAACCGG…AGGTTGGTTTCACT; site = the 11-nt donor
REPORTED_PROPERTY: recombinant UMI read abundance (log10)
Write no unit; give the number alone.

[
  {
    "RESIDUE_STRING": "CCGTTAGCATGGACCGGTTTTCCCGGTAATCCGTATTTGAG (site CCGTTAGCTCC)",
    "recombinant UMI read abundance (log10)": 0.006
  },
  {
    "RESIDUE_STRING": "GATTAGCCATGGACCGGTTTTCCCGGTAATCCGTATTTGCT (site GATTATCCTAG)",
    "recombinant UMI read abundance (log10)": 0
  },
  {
    "RESIDUE_STRING": "ACCAGTGCATGGACCGGTTTTCCCGGTAATCCGTATTTGGT (site ACTAGTGCTAC)",
    "recombinant UMI read abundance (log10)": 0.19
  },
  {
    "RESIDUE_STRING": "AATGGAACATGGACCGGTTTTCCCGGTAATCCGTATTTGCT (site AATGTAACTAG)",
    "recombinant UMI read abundance (log10)": 1.78
  },
  {
    "RESIDUE_STRING": "TGGACACCATGGACCGGTTTTCCCGGTAATCCGTATTTGAC (site TGGACACCTGT)",
    "recombinant UMI read abundance (log10)": 0
  }
]

// switching to the query sequence
Prompt: Could you tell me which recombinant UMI read abundance (log10) is on file for GTTTAGCCATGGACCGGTTTTCCCGGTAATCCGTATTTGGC (site GTTTAGCCTGC) ?
Completion: 0

---

Assay: recombinant barcode read abundance after kanamycin selection (control-corrected) (log10(CPM+1)); higher = more efficient recombination; sequences stand for … in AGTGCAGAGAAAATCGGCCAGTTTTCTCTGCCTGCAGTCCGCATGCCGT…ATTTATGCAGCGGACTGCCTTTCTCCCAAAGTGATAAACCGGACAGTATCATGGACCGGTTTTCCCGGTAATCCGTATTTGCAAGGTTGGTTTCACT; site = the 11-nt target
Mark Met for reported recombinant barcode read abundance (log10) of 0.1 or greater; mark Not met for anything smaller.

Please review the following examples before continuing.
[
  {
    "RESIDUE_STRING": "TCTACCCCCTGGGTTCTAACCTGTTGCTGGG [TCTACCCCTCA_LTGcore_CC_RTGcore_CC] (site TCTACCCCTCA) (LTG core: CC, RTG core: CC)",
    "ASSIGNED_CATEGORY": "Not met"
  },
  {
    "RESIDUE_STRING": "GTCGCCCTATGGGTTCTAACCTGTTGCTATA [GTCGCCCCTTA_LTGcore_TA_RTGcore_TA] (site GTCGCCCCTTA) (LTG core: TA, RTG core: TA)",
    "ASSIGNED_CATEGORY": "Met"
  },
  {
    "RESIDUE_STRING": "GCGCGACCTTGGGTTCTAACCTGTTGCTTCG [GCGCGACCTAA_LTGcore_CT_RTGcore_CG] (site GCGCGACCTAA) (LTG core: CT, RTG core: CG)",
    "ASSIGNED_CATEGORY": "Met"
  },
  {
    "RESIDUE_STRING": "CATATTACTTGGGTTCTAACCTGTTGCCTTC [CATATTACTAG_LTGcore_CT_RTGcore_GA] (site CATATTACTAG) (LTG core: CT, RTG core: GA)",
    "ASSIGNED_CATEGORY": "Not met"
  },
  {
    "RESIDUE_STRING": "ACGGGACTTTGGGTTCTAACCTGTTGCAGAG [ACGGGACCTCT_LTGcore_TT_RTGcore_CT] (site ACGGGACCTCT) (LTG core: TT, RTG core: CT)",
    "ASSIGNED_CATEGORY": "Not met"
  },
  {
    "RESIDUE_STRING": "ACGGGACGGTGGGTTCTAACCTGTTGCAGAG [ACGGGACCTCT_LTGcore_GG_RTGcore_CT] (site ACGGGACCTCT) (LTG core: GG, RTG core: CT)",
    "ASSIGNED_CATEGORY": "Met"
  }
]

Prompt: Threshold query (recombinant barcode read abundance (log10) >= 0.1) on TAAGAATCTTGGGTTCTAACCTGTTGCCTTC [TAAGAATCTAG_LTGcore_CT_RTGcore_GA] (site TAAGAATCTAG) (LTG core: CT, RTG core: GA)
Completion: Met

Prompt: Same read-out for AGTCTTATGTGGGTTCTAACCTGTTGCCAAG [AGTCTTACTTG_LTGcore_TG_RTGcore_CT] (site AGTCTTACTTG) (LTG core: TG, RTG core: CT) ?
Completion: Not met

Prompt: Same read-out for CGGTCCCAGTGGGTTCTAACCTGTTGCCACT [CGGTCCCCTTG_LTGcore_AG_RTGcore_AG] (site CGGTCCCCTTG) (LTG core: AG, RTG core: AG) ?
Completion: Met
